# TESTED_SYSTEM: Alpha-2A adrenergic receptor (Homo sapiens, UniProt P08913); further: assay procedure not described here
# Sequence (P08913 whole entry): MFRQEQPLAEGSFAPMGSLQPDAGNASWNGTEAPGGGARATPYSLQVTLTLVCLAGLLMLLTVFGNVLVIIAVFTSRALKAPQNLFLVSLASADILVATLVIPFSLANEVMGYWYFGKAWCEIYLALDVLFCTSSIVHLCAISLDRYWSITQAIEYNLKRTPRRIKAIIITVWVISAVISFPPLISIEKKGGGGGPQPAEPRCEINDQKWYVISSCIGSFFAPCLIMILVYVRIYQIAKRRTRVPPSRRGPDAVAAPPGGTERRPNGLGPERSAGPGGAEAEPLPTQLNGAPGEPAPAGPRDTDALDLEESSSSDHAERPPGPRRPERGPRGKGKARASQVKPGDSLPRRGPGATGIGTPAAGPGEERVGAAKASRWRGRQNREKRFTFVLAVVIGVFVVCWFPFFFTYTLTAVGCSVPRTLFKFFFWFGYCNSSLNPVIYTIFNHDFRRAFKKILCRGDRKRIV
true (1) if AC50 is below 4 µM. false (0) if not; exact matches included in false (0).

For orientation, consider the following solved cases.
{"columns": ["STRUCTURE_SMILES_STRING", "CATEGORY_LABEL"],
 "data": [
  ["COc1cc(C[C@@H]2NCCc3cc(O)c(O)cc32)cc(OC)c1OC", "true (1)"],
  ["CSCC[C@H](N)C(=O)O", "false (0)"]
]}

Is AC50 strictly under 4 µM for the entry N[C@@H](Cc1ccc(N(CCCl)CCCl)cc1)C(=O)O ?
false (0)

Also, O=NN(CCCl)C(=O)NC1CCCCC1 please.
true (1)
